Where do the numbers come from? From patent US20260092093A1.

measurement_target: T1, hIL-18 receptor (hIL-18Rα and hIL-18Rβ) (human, UniProt Q13478 19-541; O95256 20-599)
T1 sequence (looked up) 1: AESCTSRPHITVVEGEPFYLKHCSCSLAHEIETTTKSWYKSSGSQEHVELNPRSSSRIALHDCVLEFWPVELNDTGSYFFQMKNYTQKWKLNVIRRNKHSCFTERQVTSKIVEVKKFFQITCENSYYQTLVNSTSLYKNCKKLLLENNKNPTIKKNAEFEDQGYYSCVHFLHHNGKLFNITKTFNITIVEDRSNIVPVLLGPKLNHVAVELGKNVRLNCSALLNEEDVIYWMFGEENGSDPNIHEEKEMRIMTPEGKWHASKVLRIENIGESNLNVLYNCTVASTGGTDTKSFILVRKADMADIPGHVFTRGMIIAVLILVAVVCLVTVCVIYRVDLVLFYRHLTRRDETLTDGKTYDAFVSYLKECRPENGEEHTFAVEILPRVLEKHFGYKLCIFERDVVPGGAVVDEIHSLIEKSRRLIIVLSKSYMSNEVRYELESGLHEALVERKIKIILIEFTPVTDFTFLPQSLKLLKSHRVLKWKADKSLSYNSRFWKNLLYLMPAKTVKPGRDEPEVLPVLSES
T1 sequence (looked up) 2: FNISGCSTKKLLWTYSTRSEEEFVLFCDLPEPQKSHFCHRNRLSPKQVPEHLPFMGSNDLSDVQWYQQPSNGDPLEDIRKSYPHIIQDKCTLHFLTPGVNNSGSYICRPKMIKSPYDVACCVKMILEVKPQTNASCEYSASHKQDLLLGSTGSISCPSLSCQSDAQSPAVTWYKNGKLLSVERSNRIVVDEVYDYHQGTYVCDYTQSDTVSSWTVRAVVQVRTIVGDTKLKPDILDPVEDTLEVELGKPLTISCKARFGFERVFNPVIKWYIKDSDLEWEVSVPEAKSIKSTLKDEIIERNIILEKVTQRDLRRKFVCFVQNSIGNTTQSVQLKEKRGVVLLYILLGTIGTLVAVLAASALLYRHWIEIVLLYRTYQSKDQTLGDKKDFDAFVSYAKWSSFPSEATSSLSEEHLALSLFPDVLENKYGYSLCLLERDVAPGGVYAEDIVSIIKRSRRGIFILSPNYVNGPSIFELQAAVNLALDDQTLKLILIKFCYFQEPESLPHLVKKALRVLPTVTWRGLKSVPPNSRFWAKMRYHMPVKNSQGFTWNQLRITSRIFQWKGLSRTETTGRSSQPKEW
assay_info: cell-based or functional assay
Let's look at some binders and their measured EC50 (nM), hIL-18 reporter assay.
Numeric only. Scale: nM

[ask] Using the record for IL-18 variant polypeptide M2 (ligand) YFSKLKSKLSVIRNLNDQVLFIDQGNRPLFEDMTDSDCRDNAPRTIFIISMYKWSPDRGMAVTISVKCEKISTLSCENKIISFKEMNPPDGIKDTKSDIIFFQTSVPGHDNKMQFESSSYEGYFLACEKERDLFKLILKKEDELGDRSIMFTVQNED , report its EC50 (nM), hIL-18 reporter assay.
[reply] 0.27

[ask] Using the record for IL-18 variant polypeptide M24 (ligand) YFPKLRSKLSVIRNLNDQVLFIDQGNRPLFEDMTDSDCRDNAPRTIFIISMYKYSTSRGMAVTISVKCEKISTLSCENKIISFKEMNPPDNIKDTKSDIIFFQRSVPGHDNKMQFESSSYEGYFLACEKERDLFKLILKKEDELGDRSIMFTVQNED , report its EC50 (nM), hIL-18 reporter assay.
[reply] 0.99

Shifting focus to the binder that follows.
[ask] Using the record for IL-18 variant polypeptide LM3 (ligand) YFPKLRSKLSIIRNLNDQVLFIDQGNRPLFEDMTDSDCRDNAPRTIFIISMYKGSGARGMAVTISVKCEKISTLSCENKIISFKEMNPPDGIKDTKSDIIFFQRSVPGHDNKMQFESSSYEGYFLACEKERDLFKLILKKEDELGDRSIMFTVQNED , report its EC50 (nM), hIL-18 reporter assay.
[reply] 0.052
